biological target: human MRGPRX4-83L (Homo sapiens, UniProt Q96LA9); construct: host or cells: CHO β-arrestin cells; assay: Calcium assay (human MRGPRX4 83L), recombinant astrocytes; type: cell-based; conditions: Table 4; efficacy based on maximal effect of 1 μM B-16 (set as 100%); read-out: Emax
Sequence (Q96LA9 whole entry): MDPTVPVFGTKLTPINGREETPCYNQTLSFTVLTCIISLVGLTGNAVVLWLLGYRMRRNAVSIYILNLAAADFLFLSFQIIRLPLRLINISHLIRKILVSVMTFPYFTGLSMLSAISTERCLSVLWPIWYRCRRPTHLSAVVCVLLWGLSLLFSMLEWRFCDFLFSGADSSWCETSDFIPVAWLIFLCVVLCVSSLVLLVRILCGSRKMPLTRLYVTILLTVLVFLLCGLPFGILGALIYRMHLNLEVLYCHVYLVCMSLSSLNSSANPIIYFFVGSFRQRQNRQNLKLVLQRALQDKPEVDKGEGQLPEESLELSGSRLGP
endpoint name: Emax (%)

{"compound": "C#CCn1c(=O)c2[nH]c(CCc3ccccc3F)nc2n(CCCCP(=O)(O)O)c1=O [B-24]", "measurement units": "%", "recorded result": 100}
{"compound": "C#CCn1c(=O)c2c(nc(CCc3ccccc3Br)n2CC2CCC2)n(CCCCP(=O)(O)O)c1=O [B-45]", "measurement units": "%", "recorded result": 101}
{"compound": "C#CCn1c(=O)c2c(nc(CCc3ccc(Br)cc3)n2CC2CCCC2)n(CCCCP(=O)(O)O)c1=O [B-38]", "measurement units": "%", "recorded result": 9}
{"compound": "C#CCn1c(=O)c2c(nc(CCc3ccccc3Br)n2C)n(CCCCCP(=O)(O)O)c1=O [B-53]", "measurement units": "%", "recorded result": 113}
